Ki tested on JAK-2 (Homo sapiens): recorded values
Sequence (O60674 whole entry): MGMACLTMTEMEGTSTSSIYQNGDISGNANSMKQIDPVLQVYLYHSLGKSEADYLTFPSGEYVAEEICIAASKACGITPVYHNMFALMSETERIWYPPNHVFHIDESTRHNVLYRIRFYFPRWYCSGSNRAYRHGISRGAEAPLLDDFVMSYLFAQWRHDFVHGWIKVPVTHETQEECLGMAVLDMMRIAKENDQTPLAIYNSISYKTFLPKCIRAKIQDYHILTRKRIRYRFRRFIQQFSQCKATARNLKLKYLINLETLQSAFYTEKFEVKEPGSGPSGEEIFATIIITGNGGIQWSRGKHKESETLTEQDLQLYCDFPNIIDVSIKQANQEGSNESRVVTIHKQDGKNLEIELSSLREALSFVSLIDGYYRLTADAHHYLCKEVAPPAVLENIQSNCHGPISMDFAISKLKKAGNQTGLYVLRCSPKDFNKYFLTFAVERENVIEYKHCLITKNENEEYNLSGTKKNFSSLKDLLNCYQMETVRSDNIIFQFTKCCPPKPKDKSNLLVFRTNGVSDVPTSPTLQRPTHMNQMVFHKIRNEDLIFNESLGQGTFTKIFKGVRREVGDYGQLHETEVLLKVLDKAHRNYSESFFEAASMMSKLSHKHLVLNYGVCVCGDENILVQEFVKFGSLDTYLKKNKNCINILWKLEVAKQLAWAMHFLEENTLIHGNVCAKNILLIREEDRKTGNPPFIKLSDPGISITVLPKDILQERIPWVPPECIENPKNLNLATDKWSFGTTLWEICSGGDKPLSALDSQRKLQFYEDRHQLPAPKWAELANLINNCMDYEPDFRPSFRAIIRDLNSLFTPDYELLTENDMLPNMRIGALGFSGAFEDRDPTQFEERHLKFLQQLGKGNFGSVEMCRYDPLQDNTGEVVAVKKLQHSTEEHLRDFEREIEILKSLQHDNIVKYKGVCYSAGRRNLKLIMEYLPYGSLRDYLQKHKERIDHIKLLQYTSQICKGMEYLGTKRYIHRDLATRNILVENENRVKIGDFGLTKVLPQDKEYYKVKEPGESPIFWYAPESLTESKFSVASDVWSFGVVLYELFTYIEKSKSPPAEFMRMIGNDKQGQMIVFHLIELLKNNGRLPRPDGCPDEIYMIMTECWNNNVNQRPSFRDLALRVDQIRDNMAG

> print(dat)
                                   molecule          result
1  Fc1ccccc1C1Nc2ccccc2-c2ccnc3[nH]cc1c23 (stereo not drawn) [Compound 7]        < 250 nM
2  Oc1c(Br)cc(C2Nc3ccccc3-c3ccnc4[nH]cc2c34)cc1Br (stereo not drawn) [Compound 78]  250 to 2500 nM
3  COC(=O)C1(c2ccc(N)cc2)Nc2ccccc2-c2ccnc3[nH]cc1c23 (stereo not drawn) [Compound 102]       > 2500 nM

query: # query: Ki of entry O=C1NC(c2ccc(Br)cc2)c2c[nH]c3nccc(c23)-c2ccccc21 (stereo not drawn) [Compound 152]
result: > 2500 nM

query: # query: Ki of entry Oc1ccc(O)c(C2Nc3ccccc3-c3ccnc4[nH]cc2c34)c1 (stereo not drawn) [Compound 72]
result: > 2500 nM

query: # query: Ki of entry Fc1cccc(F)c1C1Nc2ncccc2-c2ccnc3[nH]cc1c23 (stereo not drawn) [Compound 47]
result: 250 to 2500 nM

query: # query: Ki of entry Fc1ccc(F)c(C2Nc3ccccc3-c3ccnc4[nH]cc2c34)c1F (stereo not drawn) [Compound 30]
result: < 250 nM

query: # query: Ki of entry O=[N+]([O-])c1ccc(C2Nc3ccccc3-c3ccnc4[nH]cc2c34)cc1 (stereo not drawn) [Compound 86]
result: > 2500 nM
